Tested on: Cytochrome P450
experimental_details: Stability in human liver microsomes assessed as CYP450-mediated metabolism by measuring parent compound remaining at 1 uM measured after 60 mins in presence of NADPH generating system by LC-MS/MS analysis
Format: ADME
details: 1 h
readout: Stability (%)

COc1ccc(-c2c(C)nc3c(N4CC[C@@H](SC(C)=O)C4)cc(C)nn23)cc1OC : 11
COc1ccc(-c2c(C)nc3c(N4CC[C@@H](NS(=O)(=O)c5ccc(C(F)(F)F)cc5)C4)cc(C)nn23)cc1OC : 61
CC(=O)N[C@@H]1CCN(c2cc(C)nn3c(-c4ccc(OC(F)(F)F)cc4)c(C)nc23)C1 : 114

a. COc1ccc(-c2c(C)nc3c(N4CC[C@@H](NC(=O)C(F)(F)c5ccccc5)C4)cc(C)nn23)cc1OC
b. COc1ccc(-c2c(C)nc3c(N4CCCC4)cc(C)nn23)cc1OC
c. CCCCCC(=O)N[C@@H]1CCN(c2cc(C)nn3c(-c4ccc(OC)c(OC)c4)c(C)nc23)C1
d. COc1ccc(-c2c(C)nc3c(N4CC[C@@H](NS(=O)(=O)c5ccc(C(C)=O)cc5)C4)cc(C)nn23)cc1OC
Order the 4 compounds from highest to lowest Stability. Please respond by ranking the labels in the order requested.
c, b, a, d

---

experimental_details: Cmax in 5XFAD transgenic B6SJLF1/J mouse plasma at 10 mg/kg, ip by LC-MS/MS analysis
Assay type: ADME, organism-based
Design: dose 10 mg/kg, route intraperitoneal
readout: Cmax (µM)
Enter your answer as a number in µM; do not include the unit.

Entry under review: "COc1ccc(-c2c(C)nc3c(N4CC[C@@H](NC(=O)Oc5ccccc5)C4)cc(C)nn23)cc1OC" . Reported Cmax?
7.7

---

experimental_details: Stability in mouse liver microsomes assessed as CYP450-mediated metabolism by measuring parent compound remaining at 1 uM measured after 60 mins in presence of NADPH generating system by LC-MS/MS analysis
Assay type: ADME
details: 1 h
readout: Parent compound remaining (%)

COc1ccc(-c2c(C)nc3c(N4CC[C@@H](NS(=O)(=O)c5ccc(C)cc5)C4)cc(C)nn23)cc1OC : 2
COc1ccc(-n2c(C)nc3c(N4CC[C@@H](NC(C)=O)C4)nc(C)nc32)cc1OC : 104
COc1ccc(-c2c(C)nc3c(N4CC[C@@H](NC(=O)Nc5ccccc5)C4)cc(C)nn23)cc1OC : 87
COc1ccc(-c2c(C)nc3c(N4CC[C@@H](NS(=O)(=O)C5CC5)C4)cc(C)nn23)cc1OC : 95
COc1ccc(-c2cnc3c(N4CC[C@@H](NC(C)=O)C4)cc(C)nn23)cc1OC : 53

1. COc1ccc(-c2c(C)nc3c(N4CC[C@@H](NC(=O)C(F)(F)c5ccccc5)C4)cc(C)nn23)cc1OC
2. CC(=O)N[C@@H]1CCN(c2cc(C)nn3c(-c4cccs4)c(C)nc23)C1
3. COc1ccc(-c2c(C)nc3c(N4CC[C@@H](NC(=O)C(F)(F)F)C4)cc(C)nn23)cc1OC
4. COc1ccc(-c2cnc3c(N4CC[C@@H](NC(C)=O)C4)ccnn23)cc1OC
5. COc1ccc(-c2c(C)nc3c(N4CCCC4)cc(C)nn23)cc1OC
In this exercise, place the 5 compounds in ascending sequence of their recorded Parent compound remaining. Please respond by ranking the labels in the order requested.
5, 1, 2, 4, 3

1. COc1ccc(-c2c(C)nc3c(N4CC[C@@H](NS(=O)(=O)c5ccc(C(C)=O)cc5)C4)cc(C)nn23)cc1OC
2. COc1ccc(-c2c(C)nc3c(N4CC[C@@H](SC(C)=O)C4)cc(C)nn23)cc1OC
Parameter metric = Parent compound remaining. Return the lower-valued option from 1 and 2 . State your choice using its label.
1

a. COc1ccc(-c2c(C)nc3c(N4CC[C@@H](NS(=O)(=O)c5ccccc5)C4)cc(C)nn23)cc1OC
b. CSc1ccc(-c2c(C)nc3c(N4CC[C@@H](NC(C)=O)C4)cc(C)nn23)cc1
c. COc1ccc(-c2c(C)nc3c(N4CC[C@@H](NS(=O)(=O)c5ccc(Cl)cc5)C4)cc(C)nn23)cc1OC
d. CCCCCC(=O)N[C@@H]1CCN(c2cc(C)nn3c(-c4ccc(OC)c(OC)c4)c(C)nc23)C1
Order the 4 compounds from highest to lowest Parent compound remaining. Please respond by ranking the labels in the order requested.
d, b, a, c
